Test system: HT-29
Assay: NCI tumour cell line growth inhibition, 48 h
The source made the active and inactive calls. No stated cut-off is given here; in the data, active = GI50 up to about 1.1 µM and inactive = higher.
reported.property: GI50

>  <compound>
C[C@]12CC[C@@H]3c4ccc(OS(N)(=O)=O)cc4CC[C@H]3[C@@H]1CCC2=O [EMATE]

>  <GI50>
30.1 µM (inactive)

$$$$
>  <compound>
O=C(c1cc(Cl)ccc1Cl)N1CCN(c2ccc(Cl)c(Cl)c2)CC1

>  <GI50>
22.8 µM (inactive)

$$$$
>  <compound>
C=C(CN(C)C)C(=O)c1ccc(C)cc1C

>  <GI50>
7.66 µM (inactive)

$$$$
>  <compound>
O=C1CSC(c2ccc(Cl)cc2)N1c1ccc(-n2c(-c3ccccc3)nc3ccccc3c2=O)cc1 (stereo not given)

>  <GI50>
84.7 µM (inactive)

$$$$
>  <compound>
Cc1c(C#N)c2nnn(-c3ccc([N+](=O)[O-])cc3)c(=O)n2c1-c1ccccc1

>  <GI50>
8.53 µM (inactive)

$$$$

Task: GI50 lookup needed for `COC(=O)c1ccc(/C=N/c2ccc(S(N)(=O)=O)cc2)cc1` , thanks.
Output: > 100 µM (inactive)

Task: GI50 lookup needed for `Cc1ccccc1Nc1nc(NNC(=O)Cc2ccccc2)nc(NNC(=O)c2ccncc2)n1` , thanks.
Output: > 10 µM (inactive)

Task: GI50 lookup needed for `Cc1nn(-c2ccccn2)c2c1C(SC#N)=C(C=O)CC2` , thanks.
Output: 16.1 µM (inactive)

Task: GI50 lookup needed for `CCOP(=O)(Cc1nc(C#N)c(N)o1)OCC` , thanks.
Output: > 100 µM (inactive)

Task: GI50 lookup needed for CC1=C(N(C)C)C(=O)c2nc3n(c2C1=O)CCC3OC(N)=O (stereo not given) , thanks.
Output: 19.7 µM (inactive)

###

System: 786-0
Assay: NCI tumour cell line growth inhibition, 48 h
The source made the active and inactive calls. Rule as the data show it: active = GI50 up to about 1.1 µM and inactive = higher.
reported.property: GI50

Known GI50 results, listed for orientation:
>  <molecule>
CCOC(=O)c1cccc([N+](=O)[O-])c1N

>  <GI50>
> 100 µM (inactive)

$$$$
>  <molecule>
O=C1OC(C2Cc3ccc4c(c3C2=O)CCCC4)c2ccccc21 (stereo not given)

>  <GI50>
50.8 µM (inactive)

$$$$
>  <molecule>
OC1CC(O)O[C@H](c2ccccc2)C1 (stereo not given in full)

>  <GI50>
> 100 µM (inactive)

$$$$
>  <molecule>
COc1c(CC=C(C)C)c(O)c(C(CC(C)C)c2c(O)c3c(c(C(C)=O)c2O)OC(C(C)(C)O)C3)c(O)c1C(C)=O (stereo not given)

>  <GI50>
5.65 µM (inactive)

$$$$
>  <molecule>
COc1ccc(NCc2cccc3c(=O)c4ccc(Cl)cc4oc23)cc1

>  <GI50>
> 100 µM (inactive)

$$$$

Task: GI50 lookup needed for `Clc1ccc(Nc2nn3c(CCCCCCCCc4nnc5sc(Nc6ccc(Cl)cc6)nn45)nnc3s2)cc1` , thanks.
Output: 51.6 µM (inactive)

Task: GI50 lookup needed for CC1OC(OC2CCCc3c(O)c4c(c(O)c32)C(=O)c2ccccc2C4=O)CC(N)C1O (stereo not given) , thanks.
Output: 1.29 µM (inactive)

Task: GI50 lookup needed for `COC(=O)c1c(-c2ccccc2)sc(-c2cccc3ccccc23)c1C(=O)OC` , thanks.
Output: > 100 µM (inactive)

Task: GI50 lookup needed for `COc1ccc2ccc3oc(=O)c(C)cc3c2c1` , thanks.
Output: > 100 µM (inactive)

Task: GI50 lookup needed for `O=C(c1cc(Cl)ccc1Cl)N1CCN(c2ccc(Cl)c(Cl)c2)CC1` , thanks.
Output: 19.7 µM (inactive)

###

Tested on: UACC-257
Test: NCI tumour cell line growth inhibition, 48 h
Activity calls are given as the source filed them. Cut-off read from the data, not from the text of the source: active = GI50 up to about 1.1 µM and inactive = higher.
Response enum: Y = active, N = inactive

Would you please look over these solved cases?
>  <molecule>
CC(=O)OC1CCN(C(=O)c2ccccc2)CC1CC1(c2cc3ccccc3[nH]2)OCCO1 (stereo unspecified)

>  <class.name>
N

$$$$
>  <molecule>
C=C1C(=O)O[C@@H]2C[C@@]3(C)CCC[C@H](C)C3=C[C@H]12 [HELENINE]

>  <class.name>
N

$$$$
>  <molecule>
O=C1CN2C(Cl)(Cl)C2(c2ccccc2)c2cc(Cl)ccc2N1CC(F)(F)F (stereo unspecified)

>  <class.name>
N

$$$$

Task: Just curious, what result did `CCN(CC)c1ccc2cc(-c3nnc(-c4ccccc4O)o3)c(=O)oc2c1` get here?
Output: N

Task: Just curious, what result did `Cc1ccc2c(O)cc(-c3cccc(Cl)c3)nc2n1` get here?
Output: Y

Task: Just curious, what result did O=C(O)c1ccc(C2SCc3nc4ccccc4n32)cc1 (stereo unspecified) get here?
Output: N

###

Tested on: NCI-H522
Assay: NCI tumour cell line growth inhibition, 48 h
Activity calls are given as the source filed them. Cut-off read from the data, not from the text of the source: active = GI50 up to about 1.1 µM and inactive = higher.
# GI50 listing for each entry below

Known GI50 results, listed for orientation:
>  <compound>
CCOC(=O)c1sc2c(c1OC(=O)c1ccc(Cl)cc1Cl)c(=O)n(-c1ccccc1)c(=S)n2-c1ccccc1

>  <GI50>
4.74 µM (inactive)

$$$$
>  <compound>
CC(=O)OI1NC(=O)c2ccccc21

>  <GI50>
80.2 µM (inactive)

$$$$
>  <compound>
CC(=O)OC1C[C@H]2C(OC(=O)c3ccccc3)C3C4(OC(C)=O)COC4C[C@H](OC(C)=O)[C@@]3(C)C(OC(C)=O)[C@H](OC(C)=O)C(=C1C)C2(C)C (some centres undefined)

>  <GI50>
20.4 µM (inactive)

$$$$

Task: GI50 lookup needed for `CN(C)CCNC(=O)c1cc(NC(=O)c2cc(NC(=O)CC/C=C3/[C@@H]4CC[C@H]3N=N4)cn2C)cn1C` , thanks.
Output: > 100 µM (inactive)

Task: GI50 lookup needed for `N/C(=C\c1ccc(OCc2ccccc2)c(OCc2ccccc2)c1[N+](=O)[O-])C(=O)O` , thanks.
Output: > 100 µM (inactive)

Task: GI50 lookup needed for `O=C(CCCN1CCC(Nc2ccccc2)(c2nnnn2C2CCCCC2)CC1)c1ccc(F)cc1` , thanks.
Output: 6.55 µM (inactive)

Task: GI50 lookup needed for `CN1C(=O)c2cccc3c([N+](=O)[O-])ccc(c23)C1=O` , thanks.
Output: 1.36 µM (inactive)

Task: GI50 lookup needed for CC(C)N(C(=O)C12C3C4C1C1C4(C#N)C3C12C(=O)O)C(C)C (centres undefined) , thanks.
Output: > 69.3 µM (inactive)

Task: GI50 lookup needed for `CCOC(=O)N1CCN(c2ccc3c(C)cc(C)nc3n2)CC1` , thanks.
Output: > 100 µM (inactive)

###

Tested on: CCRF-CEM
Experiment: NCI tumour cell line growth inhibition, 48 h
Calls of active or inactive are those of the source. Cut-off read from the data, not from the text of the source: active = GI50 up to about 1.1 µM and inactive = higher.
Response enum: active, inactive

>  <molecule>
O=c1c2c3c(sc2nc2n1sc1nc4sc5c(c4c(=O)n12)CCCC5)CCCC3

>  <class.name>
inactive

$$$$
>  <molecule>
Cc1cn(C2CC(O)C(CO[Si](C)(C)C(C)(C)C)OC2OC(C)C)c(=O)[nH]c1=O (stereo not given)

>  <class.name>
inactive

$$$$
>  <molecule>
Cc1ccc2c(c1)[nH]c(=S)n2C=C1C(=O)CC(C)(C)CC1=O

>  <class.name>
inactive

$$$$

Task: Just curious, what result did `CNS(=O)(=O)NN(C)S(=O)(=O)c1ccc(Br)cc1` get here?
Output: inactive

Task: Just curious, what result did Cc1cc(=O)oc2cc(OCC(O)COC(C)C)ccc12 (stereo not given) get here?
Output: inactive

Task: Just curious, what result did `COc1cc2c3c(c1OC)C(=O)C=C3N(S(=O)(=O)c1ccc(C)cc1)CC2` get here?
Output: inactive

Task: Just curious, what result did COc1ccccc1C(=O)OCC1CCCN2CCCCC12 (stereo not given) get here?
Output: inactive

Task: Just curious, what result did [O-][S+]1c2ccccc2N=C(c2ccc3ccccc3c2)CC1c1ccccc1 (stereo not given) get here?
Output: inactive

Task: Just curious, what result did `CC[C@@]1(O)C(=O)OCc2c1cc1n(c2=O)Cc2c-1nc1ccccc1c2/C=N\NC(=O)CN` get here?
Output: active

Task: Just curious, what result did CC(C)CCCC(C)[C@H]1CC[C@H]2N/C(=N/c3ccccc3)CCC[C@]12C (stereo not given in full) get here?
Output: inactive

###

# GI50 listing for each entry below
Tested on: KM12
Test: NCI tumour cell line growth inhibition, 48 h
The source made the active and inactive calls. No stated cut-off is given here; in the data, active = GI50 up to about 1.1 µM and inactive = higher. Square brackets hold non-standard residues; d marks the D form. Peptide text beside a SMILES is read from it. * marks the point of attachment. ξ: configuration not given here. ξF = NC(Cc1ccccc1)C(=O)O; Cbz = O=C(OCc1ccccc1)*; Aib = CC(C)(N)C(=O)O

Known GI50 results, listed for orientation:
>  <molecule>
COc1ccc(OC)c(/C=C2\CCc3ccccc3C2=O)c1

>  <system>
KM12

>  <GI50>
3.05 µM (inactive)

$$$$
>  <molecule>
CC(C)(NC(=O)OCc1ccccc1)C(=O)NC(Cc1ccccc1)C(=O)O (stereo unspecified) (Cbz-[Aib]-[ξF]-OH)

>  <system>
KM12

>  <GI50>
> 100 µM (inactive)

$$$$
>  <molecule>
CC1CN=C(N(C)C(=O)Nc2ccc(Cl)c(Cl)c2)S1 (stereo unspecified)

>  <system>
KM12

>  <GI50>
32.4 µM (inactive)

$$$$
>  <molecule>
O=C1CCC(c2ccccc2)(c2ccccc2)CC1

>  <system>
KM12

>  <GI50>
> 100 µM (inactive)

$$$$
>  <molecule>
NC(=S)Nc1nc(=S)[nH]c2[nH]ccc12

>  <system>
KM12

>  <GI50>
26.2 µM (inactive)

$$$$

Task: For the record CC12OC(=O)C(C#N)C1(C)C1C(=O)CCCC12 (stereo unspecified) , what value of GI50 is listed for KM12?
Output: > 100 µM (inactive)
